Here's a batch of compounds along with measured pIC50 for c-KIT (Homo sapiens).
pIC50: −log10 of the molar value.
Parameter Measured: pIC50

>>> print(df.to_string())
                                   compound  sign  observed_measurement
0  Cc1cccc(-c2[nH]ncc2-c2ccc3ncccc3n2)n1 [RepSox]     =                  5.28
1  Cc1cccc(-c2[nH]c(C(C)(C)C)nc2-c2ccc3nccnc3c2)n1 [SB-525334]     <                  5.00

* * *

Listed next: entries and their corresponding IC50.
- Tested on: NMuMG cells
- Test Method Notes: High-content microscopy EMT screen in TGFβ-treated NMuMG cells (FA, SF, FN, cell count)
- Type: cell-based, murine
- Cond: Mus musculus, read-out: Tox IC50
Parameter Measured: IC50 (µM)

>>> df
                                   compound  unit_symbol  sign  observed_measurement
0  CNC(=O)c1cc(Oc2ccc(NC(=O)Nc3ccc(Cl)c(C(F)(F)F)c3)cc2)ccn1           µM     =                  12.6
1          O=S(=O)(c1cccc2cnccc12)N1CCCNCC1           µM     >                    25

* * *

- System: NMuMG cells
- Test Method Notes: High-content microscopy EMT screen in TGFβ-treated NMuMG cells (FA, SF, FN, cell count)
- Format: cell-based, murine
- Cond: Mus musculus; NMuMG, TGFβ treatment, proof of concept; read-out: IC50 in all three parameters (focal adhesion formation, stress fibers, fibronectin deposition)
Parameter Measured: IC50

>>> print(df.to_string())
                                   compound  system_tested  observed_measurement
0  NC(=O)c1ccc(-c2nc(-c3ccc4c(c3)OCO4)c(-c3ccccn3)[nH]2)cc1    NMuMG cells               ~200 nM

* * *

- System Tested: TGFBR2 (Homo sapiens)
- Sequence (P37173 23-567): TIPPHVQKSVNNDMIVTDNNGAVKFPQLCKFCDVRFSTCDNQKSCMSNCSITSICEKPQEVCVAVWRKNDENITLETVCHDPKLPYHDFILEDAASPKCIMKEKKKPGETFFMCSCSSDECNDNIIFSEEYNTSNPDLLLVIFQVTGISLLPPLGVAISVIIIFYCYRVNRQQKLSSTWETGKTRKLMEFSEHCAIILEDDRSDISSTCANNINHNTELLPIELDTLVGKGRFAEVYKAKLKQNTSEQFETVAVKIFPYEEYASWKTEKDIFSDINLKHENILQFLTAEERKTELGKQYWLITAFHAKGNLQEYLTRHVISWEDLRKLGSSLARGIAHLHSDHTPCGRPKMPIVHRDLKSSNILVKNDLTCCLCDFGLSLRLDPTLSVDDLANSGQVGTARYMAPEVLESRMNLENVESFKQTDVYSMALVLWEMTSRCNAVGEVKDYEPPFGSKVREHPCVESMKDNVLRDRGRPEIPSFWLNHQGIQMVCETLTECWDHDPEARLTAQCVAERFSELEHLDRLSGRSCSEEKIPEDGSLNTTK
- Test Method Notes: Biochemical kinase profiling (33PanQinase radiometric assay)
- Cond: read-out: TGFBR2 IC50; ATP at apparent Km
Parameter Measured: IC50 (µM)

>>> df
                                   compound  parameter_measured  unit_symbol  sign  observed_measurement
0    Cc1ccc(-c2nn(C(C)(C)C)c3ncnc(N)c23)cc1                IC50           µM     =                  1.31
1  COc1cc(OC)cc(-c2cc3cnc(N)nc3nc2NC(=O)NC(C)(C)C)c1                IC50           µM     >                    10
2  CCN(CC)CCCCNc1ncc2cc(-c3c(Cl)cccc3Cl)c(NC(=O)NC(C)(C)C)nc2n1                IC50           µM     =                  1.28
3     Cc1cccc(-c2[nH]ncc2-c2ccc3ncccc3n2)n1                IC50           µM     =                  3.07
4  Cc1[nH]c(/C=C2\C(=O)Nc3ccccc32)c(C)c1CCC(=O)O                IC50           µM     >                    10
5  Cc1cccc(-c2[nH]c(C(C)(C)C)nc2-c2ccc3nccnc3c2)n1                IC50           µM     >                    10
